# System: HEp-2
# Method Description: Concentration required to produce 50% reduction in cloning of H.Ep.No.2 cells by 50%
# Format: functional, cell-based
# Measurement Setup: Homo sapiens
Measured Endpoint: IC50 (µM)

INSERT INTO assay_data (molecule, value_modifier, measured_number) VALUES
  ('Nc1nc(F)nc2c1ncn2C1O[C@H](CO)[C@H](O)[C@H]1Cl (stereo partly drawn)', '=', 100),
  ('Nc1nc(Cl)nc2c1ncn2C1O[C@H](CO)[C@H](O)[C@H]1Cl (stereo partly drawn)', '>', 120),
  ('Nc1nc(Cl)nc2c1ncn2C1O[C@H](CO)[C@H](O)[C@H]1N (stereo partly drawn)', '=', 80),
  ('Nc1nc(Cl)nc2c1ncn2C1O[C@H](CO)[C@H](O)[C@H]1Br (stereo partly drawn)', '>', 110),
  ('Nc1nc(Cl)nc2c1ncn2C1O[C@H](CO)[C@H](O)[C@H]1I (stereo partly drawn)', '>', 100),
  ('[N-]=[N+]=N[C@H]1C(n2cnc3c(N)nc(Cl)nc32)O[C@H](CO)[C@@H]1O (stereo partly drawn)', '>', 120),
  ('[N-]=[N+]=N[C@H]1C(n2cnc3c(N)nc(F)nc32)O[C@H](CO)[C@@H]1O (stereo partly drawn)', '=', 29),
  ('Nc1nc(F)nc2c1ncn2C1O[C@H](CO)[C@H](O)[C@H]1N (stereo partly drawn)', '=', 12);
